Readings of Normal melting temperature for the listed compounds
# test conditions: Crystal; DTA
Answer format: numeric, °C implied, no suffix.

In the examples that follow, each entry is paired with its recorded Normal melting temperature.
O=c1cc(O)c2ccccc2o1 [4-hydroxycoumarin] :: 215.2
CC(C)Cc1ccc(C(C)C(=O)O)cc1 (centres undefined) :: 74.6
CC1=CC(=O)C(C(C)C)=CC1=O :: 43.6

Fill in reported Normal melting temperature for this entry: NNC(=O)c1ccncc1 [isonicotinic acid hydrazide]
172.69
